Experiment: APR_HepG2_StressKinase_72hr: Apredica 72-hour HepG2 Assay for Stress Kinase (AID 2282921)
Conditions: HepG2 stress kinase (phospho-c-Jun) imaging, actives raise or lower the signal
Active and inactive are the calls of the source. The calls were made as follows: active = hit-call score of the fitted dose curve at least 0.9, where 1 is the maximum; inactive = score below 0.9.
Pick one and only one: Yes (active), No (inactive)

Known results for molecules:
MOLECULE: CC(C)c1ccc(C(=O)N=C(N)N)cc1S(C)(=O)=O
CLASS_ASSIGNMENT: No

MOLECULE: CNC(=O)[C@H]1O[C@@H](n2cnc3c(NCc4cc(Cl)ccc4OCc4cc(C)no4)ncnc32)[C@H](O)[C@@H]1N
CLASS_ASSIGNMENT: No

MOLECULE: NCC1(Cc2noc(=O)[nH]2)CCCCC1
CLASS_ASSIGNMENT: No

MOLECULE: CN1CCN(Cc2cc(-c3ccc4[nH]c(=O)oc4c3)co2)[C@@H](c2ccc(F)cc2)C1
CLASS_ASSIGNMENT: Yes

MOLECULE: COc1ccc(C)cc1N
CLASS_ASSIGNMENT: No

MOLECULE: CC1(C)NC(=O)NC1=O
CLASS_ASSIGNMENT: No

## Task Assay result, entry COc1ccc2c(c1)c(CC(=O)O)c(C)n2C(=O)c1ccc(Cl)cc1 — outcome?
## Result No

Recorded values, source PubChem BioAssay (EPA / NIEHS).
